// each record: one item and its IC50 for Collagenase 3 (Homo sapiens)
measured parameter: IC50 (µM)

| smiles record | target of assay | IC50 [µM] |
| --- | --- | --- |
| COc1ccc(C[C@@H](OC(=O)/C=C/c2ccc(OCc3ccccc3)c(OCc3ccccc3)c2)C(=O)O)cc1OC | Collagenase 3 (Homo sapiens) | 4.5 |
| COc1ccc(C[C@H](OC(=O)/C=C/c2ccc(OCc3ccccc3)c(OCc3ccccc3)c2)C(=O)O)cc1OC | Collagenase 3 (Homo sapiens) | 5.4 |

* * *

Molecular target: Interstitial collagenase (Homo sapiens)
Assay: Inhibition of human recombinant MMP1 catalytic domain using Dnp-Pro-beta-cyclohexyl-Ala-Gly-Cys(Me)-His-Lys-(Nma)-NH2 as substrate preincubated with enzyme for 30 mins prior to substrate addition monitored for 60 mins by fluorometric assay
measured parameter: IC50 (µM)

Use the examples below as a reference point.
| compound | number |
| --- | --- |
| COc1ccc(CC(OC(=O)/C=C/c2ccc(-c3ccccc3)cc2)C(=O)O)cc1OC (stereo not given) | 8.6 |
| COc1ccc(CC(OC(=O)/C=C/c2ccc([N+](=O)[O-])cc2)C(=O)O)cc1OC (stereo not given) | 38.5 |
| COc1ccc(CC(OC(=O)/C=C/c2ccc(Br)cc2)C(=O)NO)cc1OC (stereo not given) | 7.6 |

1 = COc1ccc(CC(OC(=O)/C=C/c2ccc3ccccc3c2)C(=O)NO)cc1OC (stereo not given)
2 = COc1ccc(CC(OC(=O)/C=C/c2ccc(F)cc2)C(=O)O)cc1OC (stereo not given)
Form: Entry with minimum IC50 (choose one): 1 / 2 Mark your answer with the label of the selected entry.
1
(1: 6.8 µM, 2: 41.7 µM)

* * *

Molecular target: Interstitial collagenase (Homo sapiens, UniProt P03956)
Sequence (P03956 whole entry): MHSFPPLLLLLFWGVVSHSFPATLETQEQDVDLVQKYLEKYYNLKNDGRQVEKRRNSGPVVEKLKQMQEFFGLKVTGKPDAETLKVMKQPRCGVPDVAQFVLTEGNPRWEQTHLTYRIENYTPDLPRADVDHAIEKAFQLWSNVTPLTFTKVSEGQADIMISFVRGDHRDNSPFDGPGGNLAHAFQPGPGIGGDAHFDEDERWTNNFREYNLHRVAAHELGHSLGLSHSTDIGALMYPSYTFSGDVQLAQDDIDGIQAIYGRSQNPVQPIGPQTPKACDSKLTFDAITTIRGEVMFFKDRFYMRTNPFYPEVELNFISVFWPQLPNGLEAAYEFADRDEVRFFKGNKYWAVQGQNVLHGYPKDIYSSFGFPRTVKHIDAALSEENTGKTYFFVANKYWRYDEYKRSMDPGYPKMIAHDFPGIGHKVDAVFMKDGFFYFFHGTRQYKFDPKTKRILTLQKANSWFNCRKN
Assay: Inhibition of human recombinant MMP1 catalytic domain using Dnp-Pro-beta-cyclohexyl-Ala-Gly-Cys(Me)-His-Lys-(Nma)-NH2 as substrate preincubated with enzyme for 30 mins prior to substrate addition monitored for 60 mins by fluorometric assay
pIC50: −log10 of the molar value.
measured parameter: pIC50

Solved cases (3 shown):
| compound | target of assay | pIC50 |
| --- | --- | --- |
| COc1ccc(CC(OC(=O)/C=C/c2ccc(OCc3ccccc3)cc2)C(=O)NO)cc1OC (centres undefined) | Interstitial collagenase (Homo sapiens, UniProt P03956) | 5.44 |
| COc1ccc(CC(OC(=O)/C=C/c2ccc(OCc3ccccc3)cc2)C(=O)O)cc1OC (centres undefined) | Interstitial collagenase (Homo sapiens, UniProt P03956) | 5.05 |
| COc1ccc(CC(OC(=O)/C=C/c2ccccc2F)C(=O)O)cc1OC (centres undefined) | Interstitial collagenase (Homo sapiens, UniProt P03956) | 4.46 |

P = COc1ccc(CC(OC(=O)/C=C/c2ccc(O)c(O)c2)C(=O)O)cc1OC (centres undefined)
Q = COc1ccc(CC(OC(=O)/C=C/c2ccc(Cl)cc2)C(=O)O)cc1OC (centres undefined)
R = O=C(/C=C/c1ccc(O)c(O)c1)O[C@H](Cc1ccc(O)c(O)c1)C(=O)O
Reorder: pIC50, max to min. # format: label list in the order the request specifies
R, P, Q
(R: 5.25, P: 4.86, Q: 4.37)
